# experimentalTarget: human CXCR3 (Homo sapiens, UniProt P49682)
# Sequence (P49682 whole entry): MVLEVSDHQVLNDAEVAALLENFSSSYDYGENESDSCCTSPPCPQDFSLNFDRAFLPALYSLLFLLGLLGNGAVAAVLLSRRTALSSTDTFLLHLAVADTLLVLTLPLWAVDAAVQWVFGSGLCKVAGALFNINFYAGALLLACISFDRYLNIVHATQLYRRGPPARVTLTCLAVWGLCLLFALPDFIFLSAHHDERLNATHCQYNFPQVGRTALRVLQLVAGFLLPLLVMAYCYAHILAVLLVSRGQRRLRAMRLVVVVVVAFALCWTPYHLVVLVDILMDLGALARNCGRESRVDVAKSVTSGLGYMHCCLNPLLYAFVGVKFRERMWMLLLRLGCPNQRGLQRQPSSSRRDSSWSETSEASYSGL
# assay: Inhibition of IP-10-induced transient Ca2+ rise in CXCR3/CHO cells
# runConditions: human IP-10 30 nM
pIC50: −log10 of the molar value.

{"columns": ["compound", "pIC50"],
 "data": [
  ["CCCCN1CCC2(CCN(Cc3ccc(Cl)cc3)CC2)N(C2CCCC2)C1=O", 5.68],
  ["CCCN1C(=O)N(CCc2ccccc2)C=CC12CCN(Cc1ccc(Cl)cc1)CC2", 5.47],
  ["O=C1C(Cc2ccccc2)CCC2(CCN(Cc3ccc(Cl)cc3)CC2)N1CC1CC1 (stereo not shown)", 5.96],
  ["C#CCOc1ccc(CN2CCC3(CCCCC3)CC2)cc1", 5.49]
]}

Values compiled from patent US20110052612A1.
